- System: 425362-245-T-J1 tumor spheroids, viability % test/control;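 note: spheroids exposed to agents for 7 days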
- assay_explanation: Anticancer human tumor 425362-245-T-J1 patient-derived melanoma cell line growth inhibition
- experimental_context: curve of first compound; second compound 100 µM; spheroids with HUVEC and MSC
Please respond with reported IC50 for every item in the list.
Field: numeric (µM). Do not append units.

Recorded IC50 (compound Cc1sc2c(c1C)C(c1ccc(Cl)cc1)=NC(CC(=O)Nc1ccc(O)cc1)c1nnc(C)n1-2 (configuration not stated) + Cn1nnc2c(C(N)=O)ncn2c1=O ): 0.0857

According to the records, this compound COc1ccc([C@@H](O)c2cc(-c3ncnc4cc(N5CCOCC5)ccc34)c(F)cc2Cl)nn1 + Cn1nnc2c(C(N)=O)ncn2c1=O displays IC50 of 2.1

# IC50 (compound: Cc1cc(C)c(CNC(=O)c2cc(-c3ccc(CN4CCOCC4)cc3)cc3c2cnn3C2CCCC2)c(=O)[nH]1 + Cn1nnc2c(C(N)=O)ncn2c1=O ) is 1.47

So, O=C(c1cc(Cc2n[nH]c(=O)c3ccccc23)ccc1F)N1CCN(C(=O)C2CC2)CC1 + Cn1nnc2c(C(N)=O)ncn2c1=O ? Its IC50 was 0.233
